Test system: Escherichia coli
Settings: Concentration 32 ug.mL-1;; ASSAY_TEST Inhibition of Bacterial Growth; detection method Absorption (OD600); MEDIA CAMHB; plate type 384well; NBS; CORNING #3640; time 18 hr
Description: Antibacterial activity against Escherichia coli ATCC 25922 (CO-ADD:GN_001); MIC in CAMBH media using NBS plates, by OD(600)
Entries with a potency or affinity are not part of this list.
Kindly supply the reported Inhibition values for the records listed here.
Answers are plain numbers, in %.

See these solved cases before continuing.
molecule: CCCCOc1ccc(-c2cc3c4nnc(SCC(=O)Nc5ccc(C)c(C)c5)n4ccn3n2)cc1
recorded-value: -4.59
//
molecule: Cc1ccc(-c2ccc3nn(Cc4nc(-c5ccc(Cl)cc5)no4)c(=O)n3n2)cc1
recorded-value: 0.55
//
molecule: Cc1ccc2c(c1)N(C(=O)Cn1nc3ccc(SCc4ccc(Cl)cc4)nn3c1=O)CCO2
recorded-value: -5.63
//
molecule: COc1ccccc1-n1ccn2c(SCC(=O)NCc3ccc(Cl)cc3)nnc2c1=O
recorded-value: -3.51
//
molecule: Cc1c(Cl)cccc1-n1ccn2c(=O)n(Cc3ccccc3Cl)nc2c1=O
recorded-value: -11.83
//
molecule: Cc1ccc(-c2cc3c4nnc(CCC(=O)N5CCN(c6ccccc6F)CC5)n4ccn3n2)cc1C
recorded-value: -5.39
//
molecule: COc1cc(NC(=O)Cn2nc3ccc(SC(C)(C)C)nn3c2=O)cc(OC)c1OC
recorded-value: 1.07
//
molecule: COc1ccc(NC(=O)Cn2nc3c4cc(-c5ccc(Cl)cc5)nn4ccn3c2=O)c(OC)c1
recorded-value: 5.1

Parameter requested: Inhibition. Apply to each item below.
1. O=S(=O)(c1ccc2nncn2c1)N(Cc1ccccc1F)c1ccc2c(c1)OCO2
2. CC(C)Cn1c(=O)c2ccc(C(=O)NC3CCCCC3)cc2n2c(=O)n(CC#N)nc12
3. CCC(C)NC(=O)Cn1nc2n(CCC(=O)NC3CCCCC3)c(=O)c3ccccc3n2c1=O (centres undefined)
4. COc1ccccc1-n1ccn2c(SCC(=O)N3CCN(c4ccccc4F)CC3)nnc2c1=O
5. CCCN(C)c1nccn2c(=O)n(CC(=O)Nc3cccc(Br)c3)nc12
6. Cc1cc2nn(CC(=O)NCc3ccccc3)c(=O)n2c(Nc2ccc(C)c(F)c2)n1
7. CSc1cccc(NC(=O)Cn2nc3ccc(-c4ccc(C)c(C)c4)nn3c2=O)c1
8. COC(=O)c1ccc(NC(=O)Cn2c(=O)c3nnc(C(C)C)n3c3ccccc32)cc1

# output
1: -4.11; 2: -0.16; 3: -15; 4: -2.51; 5: -4.19; 6: -0.54; 7: -14.99; 8: 0.09

Parameter requested: Inhibition. Apply to each item below.
1. O=C(Cn1nc2c(Sc3cccc(F)c3)nccn2c1=O)N1CCN(c2ccccc2)CC1
2. Cc1ccc(-c2cc3c4nn(CC(=O)N5CCN(c6ccc(F)cc6)CC5)c(=O)n4ccn3n2)cc1C
3. CCc1ccc(N(Cc2ccc(F)cc2)S(=O)(=O)c2cccn3c(C)nnc23)cc1
4. Cc1cc2nn(CC(=O)Nc3ccc4c(c3)OCCO4)c(=O)n2c(Nc2ccccc2C)n1

# output
[1.18, 1.43, -8.04, -1.19]

====

Test system: Escherichia coli
Settings: Concentration 32 ug.mL-1;; ASSAY_TEST Inhibition of Bacterial Growth; detection method Absorption (OD600); MEDIA CAMHB; plate type 384well; NBS; CORNING #3640; time 18 hr
Potency and affinity values are given separately.
Kindly supply the reported Inhibition values for the records listed here.
One number for each entry, in %.

compound: COc1ccccc1N1CCN(C(=O)Cn2nc3ccc(-c4ccc(Cl)cc4)nn3c2=O)CC1
study-target: Escherichia coli
Inhibition / %: 0.78
--
compound: Cc1cccc(Cn2nc3n(CCc4ccccc4)c(=O)c4sccc4n3c2=O)c1
study-target: Escherichia coli
Inhibition / %: -0.08
--
compound: COc1cccc(-n2ccn3c(=O)n(Cc4ccc([N+](=O)[O-])cc4)nc3c2=O)c1
study-target: Escherichia coli
Inhibition / %: -2.91
--
compound: CCOC(=O)c1cccc(NC(=O)CSc2nc3ccccc3n3c(C(C)C)nnc23)c1
study-target: Escherichia coli
Inhibition / %: -1.12
--
compound: Cc1ccc(-n2ccn3c(=O)n(Cc4ccccc4Cl)nc3c2=O)cc1C
study-target: Escherichia coli
Inhibition / %: -7.32

Parameter requested: Inhibition. Apply to each item below.
1. CC(C)c1nnc2c(=O)n(CC(=O)Nc3ccc(Cl)cc3)c3ccccc3n12
2. COc1ccc(-c2cc3c4nn(CC(=O)Nc5ccc6c(c5)OCO6)c(=O)n4ccn3n2)cc1
3. Cc1cc(C)c(NC(=O)Cn2c(=O)c3nnc(C(C)C)n3c3ccccc32)c(C)c1
4. CCCN(C)c1nccn2c(=O)n(CC(=O)Nc3cccc(Cl)c3F)nc12
5. CC(C)c1nnc2c(SCC(=O)Nc3ccc(Br)cc3F)nc3ccccc3n12

# output
[1.04, 6.89, 3.04, 0.13, -1.36]

====

Tested on: Staphylococcus aureus
Conditions: Concentration 32 ug.mL-1;; ASSAY_TEST Inhibition of Bacterial Growth; detection method Absorption (OD600); MEDIA CAMHB; plate type 384well; NBS; CORNING #3640; time 18 hr
Description: Antibacterial activity against Staphylococcus aureus MRSA ATCC 43300 (CO-ADD:GP_020); MIC in CAMBH media, using NBS plates, by OD(600)
Results with a measured potency or affinity are listed apart.
endpoint-name: Inhibition (%)
Numbers only, in %.

See these solved cases before continuing.
compound: COc1ccccc1-n1ccn2c(SCC(=O)Nc3ccc(C)c(F)c3)nnc2c1=O
recorded-value: 12
//
compound: CCCCOc1ccc(-c2cc3c4nnc(SCC(=O)Nc5ccc(CC)cc5)n4ccn3n2)cc1
recorded-value: -9.56
//
compound: COc1cccc(Oc2nccn3c(=O)n(CC(=O)Nc4ccc(C(C)C)cc4)nc23)c1
recorded-value: -2.58
//
compound: CCOc1ccccc1NC(=O)Cn1nc2c(Sc3cccc(C)c3)nccn2c1=O
recorded-value: 3.15
//
compound: Cc1ccc(NC(=O)Cn2nc3c(N4CCCC4)nccn3c2=O)cc1Cl
recorded-value: 3.49

Parameter requested: Inhibition. Apply to each item below.
1. Cc1cc2nn(CC(=O)Nc3cc(F)ccc3F)c(=O)n2c(Nc2ccc(C)c(F)c2)n1
2. COc1cccc(-n2ccn3c(SCC(=O)c4ccc(Br)cc4)nnc3c2=O)c1
3. Cc1cccc(Oc2nccn3c(=O)n(CC(=O)NCCCc4ccccc4)nc23)c1C
4. COc1ccc(NC(=O)Cn2nc3ccc(SC4CCCCC4)nn3c2=O)c(OC)c1

# output
[0.88, 12.63, 9.48, 7.02]

====

Kindly supply the reported Inhibition values for the records listed here.
Tested on: Escherichia coli
Settings: Concentration 32 ug.mL-1;; ASSAY_TEST Inhibition of Bacterial Growth; detection method Absorption (OD600); MEDIA CAMHB; plate type 384well; NBS; CORNING #3640; time 18 hr
Potency and affinity values are given separately.
Numbers only, in %.

compound: CCc1ccccc1Sc1nccn2c(=O)n(CC(=O)Nc3ccc(OC)c(Cl)c3)nc12
Inhibition (%): -5.89
//
compound: CC(C)c1nnc2c(=O)n(CC(=O)Nc3ccc(C#N)cc3)c3ccccc3n12
Inhibition (%): -7.65
//
compound: O=C(CCc1nnc2c(N3CCCCC3)nc3ccccc3n12)NCc1ccc2c(c1)OCO2
Inhibition (%): 2.95
//
compound: COc1cccc(CNC(=O)CSc2nnc3c(=O)n(-c4ccc(C)c(C)c4)ccn23)c1OC
Inhibition (%): -0.9

Parameter requested: Inhibition. Apply to each item below.
1. Cc1ccc(-c2cc3c4nn(CC(=O)N5CCN(c6ccccc6F)CC5)c(=O)n4ccn3n2)cc1C
2. CCc1ccc(NC(=O)Cn2nc3n(Cc4ccco4)c(=O)c4sccc4n3c2=O)cc1
3. CSc1cccc(NC(=O)Cn2nc3c(Sc4cccc(F)c4)nccn3c2=O)c1
4. CSc1ccc(CNC(=O)Cn2nc3c(Oc4ccc(C)cc4)nccn3c2=O)cc1

# output
[4.31, -6.35, -0.46, -5.13]

# input What measured Inhibition goes with "Cc1cc2nn(CC(=O)NCc3ccco3)c(=O)n2c(Nc2ccc(C)c(F)c2)n1" ?
# output -8.01

====

Test system: Staphylococcus aureus
Details: Concentration 32 ug.mL-1;; ASSAY_TEST Inhibition of Bacterial Growth; detection method Absorption (OD600); MEDIA CAMHB; plate type 384well; NBS; CORNING #3640; time 18 hr
Measured potencies and affinities stand elsewhere.
endpoint-name: Inhibition (%)
Give bare numbers, in %.

See these solved cases before continuing.
compound: COc1ccc(NC(=O)Cn2nc3c(N4CCCC4)nccn3c2=O)cc1
study-target: Staphylococcus aureus
recorded-value: 5.17

compound: CCCCc1ccc(NC(=O)CSc2nnc3c4cc(-c5ccc(C)cc5)nn4ccn23)cc1
study-target: Staphylococcus aureus
recorded-value: 10.93

compound: Cc1ccc(Sc2nccn3c(=O)n(CC(=O)N4CCN(c5ccc(F)cc5)CC4)nc23)c(C)c1
study-target: Staphylococcus aureus
recorded-value: -13.09

compound: Cn1c(=O)c2sccc2n2c(=O)n(Cc3ccc(Cl)cc3)nc12
study-target: Staphylococcus aureus
recorded-value: 3.13

compound: O=C(Cn1nc2c(Oc3ccccc3)nccn2c1=O)Nc1ccc(Br)cc1F
study-target: Staphylococcus aureus
recorded-value: -5.68

compound: Cc1nnc2c(S(=O)(=O)N(Cc3ccc(F)cc3)c3ccc(C(C)C)cc3)cccn12
study-target: Staphylococcus aureus
recorded-value: -0.08

compound: O=C(Cn1nc2c3cc(-c4ccc(Cl)cc4)nn3ccn2c1=O)Nc1ccc2c(c1)OCCO2
study-target: Staphylococcus aureus
recorded-value: -0.49

compound: Cc1ccc(CNC(=O)Cn2nc3c(N4CCN(c5ccccc5C)CC4)nccn3c2=O)cc1
study-target: Staphylococcus aureus
recorded-value: 4.45

Parameter requested: Inhibition. Apply to each item below.
1. Cc1nnc2ccc(S(=O)(=O)N(Cc3cc(F)cc(F)c3)c3ccc(F)cc3)cn12
2. C=Cc1ccc(CN(c2cccc(Cl)c2)S(=O)(=O)c2cccn3c(C)nnc23)cc1

# output
1: 1.57; 2: -18.32

Parameter requested: Inhibition. Apply to each item below.
1. O=c1c2nnc(-c3cccc([N+](=O)[O-])c3)n2ccn1-c1ccc(F)cc1
2. Cc1ccc(NC(=O)Cn2nc3c(Sc4ccccc4)nccn3c2=O)c(C)c1
3. COc1ccc(CN(c2cc(C)cc(C)c2)S(=O)(=O)c2cccn3cnnc23)cc1F

# output
1. 13.28
2. 5.22
3. -10.31

Parameter requested: Inhibition. Apply to each item below.
1. COc1ccc(N(Cc2cccc(Cl)c2)S(=O)(=O)c2ccc3nncn3c2)cc1
2. Cc1ccc(C)c(NC(=O)Cn2nc3c4cc(-c5ccc(C)c(C)c5)nn4ccn3c2=O)c1
3. O=c1c2sccc2n2c(=O)n(Cc3cccc(Cl)c3)nc2n1Cc1cccs1
4. COc1ccc(NC(=O)Cn2c(=O)c3nnc(C(C)C)n3c3ccccc32)cc1
5. COc1cccc(Oc2nccn3c(=O)n(CC(=O)Nc4ccc(C)cc4Cl)nc23)c1
6. COc1ccc(N(Cc2ccc(F)cc2)S(=O)(=O)c2ccc3nncn3c2)cc1
7. COc1ccc(Cl)cc1NC(=O)CSc1nnc2c(=O)n(-c3ccc(C)c(C)c3)ccn12

# output
-10.84
4.52
18.24
4.5
10.57
-7.56
15.8

Parameter requested: Inhibition. Apply to each item below.
1. Cc1ccc(-c2ccc3nn(CC(=O)Nc4ccc(Cl)c(C(F)(F)F)c4)c(=O)n3n2)cc1C
2. O=c1c2sccc2n2c(=O)n(Cc3cccc(Cl)c3)nc2n1CCc1ccccc1
3. O=c1n(Cc2cccc(C(F)(F)F)c2)nc2c(S(=O)(=O)N3CCCCCC3)cccn12
4. Cc1ccc(NC(=O)Cn2nc3c(N4CCOCC4)nccn3c2=O)cc1F
5. O=C(NCc1ccccc1)c1ccc2nn(CC(=O)N3CCN(c4ccccc4F)CC3)c(=O)n2c1
6. O=c1c2nnc(SCc3cccc(C(F)(F)F)c3)n2ccn1-c1ccc(Br)cc1

# output
[-0.53, 10.13, 5.28, 9.97, 3.54, 11.27]

Parameter requested: Inhibition. Apply to each item below.
1. Cc1ccc(-c2cc3c4nnc(SCC(=O)Nc5cccc(Cl)c5C)n4ccn3n2)cc1
2. Cc1cccc(C)c1NC(=O)Cn1nc2c(SC3CCCCC3)nccn2c1=O
3. COc1ccc(-c2cc3c4nn(CC(=O)Nc5ccc(OC)cc5OC)c(=O)n4ccn3n2)cc1
4. Cc1cc(C)cc(N(Cc2ccc(F)cc2)S(=O)(=O)c2cccn3c(C)nnc23)c1
5. CC(C)c1ccc(N(Cc2ccc(Cl)cc2)S(=O)(=O)c2cccn3cnnc23)cc1

# output
[-6.47, 9.56, 6.72, -7.01, 8.06]

Parameter requested: Inhibition. Apply to each item below.
1. CC(=O)c1ccc(NC(=O)Cn2nc3c(Sc4ccc(C)cc4C)nccn3c2=O)cc1
2. CSc1cccc(NC(=O)Cn2nc3c(Sc4ccc(C)cc4C)nccn3c2=O)c1
3. Cc1ccc(NC(=O)Cn2nc3c4cc(-c5ccc(C)c(C)c5)nn4ccn3c2=O)cc1C

# output
[-12.01, -13.41, 0.99]

Values were extracted from ChEMBL document CHEMBL4513146.
